# Tested on: OVCAR-8 ovarian
# method.description: NCI-60 one-dose screen, 48 h (100 = growth as untreated, 0 = no growth, -100 = all killed)
# study.conditions: 10 µM unless noted
Compounds without any hit were thinned out: in the full panel of roughly 83,000, 20% have a hit.
Lab note: class by growth, see band A = under -20%, band B = from -20% up to 60%, band C = 60% and over

[[record]]
molecule = "CNC(=O)c1cc(Oc2ccc3nc(NC(=O)Nc4cccc(OC(F)(F)F)c4)sc3c2)ccn1"
target_of_assay = "OVCAR-8 ovarian"
assigned_class = "band B"

[[record]]
molecule = "Cn1cc(-c2nc(N)nnc2-c2c[nH]c3ccc(F)cc23)c2cccnc21"
target_of_assay = "OVCAR-8 ovarian"
assigned_class = "band B"

[[record]]
molecule = "Cc1nc(Nc2ccccn2)sc1C(=O)CC(SCC(=O)Nc1ccc(Cl)cc1)c1ccccc1F (centres undefined)"
target_of_assay = "OVCAR-8 ovarian"
assigned_class = "band A"

[[record]]
molecule = "COc1cc2c3c(n(CCCN4CCC[C@@H]4CO)c(=O)c2cc1OC)-c1cc2c(cc1C3=O)OCO2"
target_of_assay = "OVCAR-8 ovarian"
assigned_class = "band A"

[[record]]
molecule = "COc1ccc(/C=C2\\C(=N)N=C(SCc3nc4ccccc4[nH]3)NC2=O)cc1"
target_of_assay = "OVCAR-8 ovarian"
assigned_class = "band C"

[[record]]
molecule = "COc1ccc(C(=O)/C=C/c2c(F)cccc2Cl)cc1S(N)(=O)=O"
target_of_assay = "OVCAR-8 ovarian"
assigned_class = "band B"

[[record]]
molecule = "CCOC(=O)c1ccc(Nc2nc(NN)nc(-c3ccc(F)cc3)c2C#N)cc1"
target_of_assay = "OVCAR-8 ovarian"
assigned_class = "band C"

[[record]]
molecule = "COc1ccc(C(=O)/C=C/c2cc3c(cc2Br)OCO3)cc1S(N)(=O)=O"
target_of_assay = "OVCAR-8 ovarian"
assigned_class = "band A"


----------
# Test system: RXF 393 renal
# method.description: NCI-60 one-dose screen, 48 h
# study.conditions: 10 µM unless noted
The panel holds about 83,000 compounds, 20% with a hit somewhere; the sample as a whole holds those more often. Active and inactive are the calls of the source. How the source made its calls: active means growth percent below 10; inactive means the rest.
Labels: YES for active, NO for inactive

[[record]]
molecule = "Cc1cc2nc3c4ccccc4n(CC4=NCCN4)c3nc2cc1C"
assigned_class = "YES"

[[record]]
molecule = "OCNc1ccc(-n2cnc3cc(-c4ccc(O)cc4)ccc32)cc1C(F)(F)F"
assigned_class = "NO"

[[record]]
molecule = "CCN1C(=O)/C(=N\\N=C(/C)c2ccc3c(c2)Nc2ccccc2S3)c2cc(Cl)ccc21"
assigned_class = "NO"

[[record]]
molecule = "CNS(=O)(=O)c1ccc(Nc2ccc(C(F)(F)F)cc2)c(-c2cn(C)cn2)c1"
assigned_class = "NO"

[[record]]
molecule = "Cc1cccc(NC(=O)CN2CCN(c3ncnc4c3cnn4-c3ccccc3)CC2)c1"
assigned_class = "NO"

[[record]]
molecule = "COc1ccc(C2=NN(C(C)=O)C(c3ccc(OCc4ccc(Cl)cc4)c(OC)c3)C2)cc1OC (stereo not given)"
assigned_class = "NO"

[[record]]
molecule = "Cc1cc2c(cc1Cl)C(=O)/C(=C/c1ccc(F)cc1)O2"
assigned_class = "NO"

[[record]]
molecule = "CN1CCN(c2ccc3c(c2)nc(NNC(=O)c2ncccn2)c2cccn23)CC1"
assigned_class = "YES"

[[record]]
molecule = "COc1c(F)ccc(C(=O)Nc2ccc3nc(NC(=O)C4CCCN(S(=O)(=O)c5ccc(Br)c(F)c5)C4)sc3c2)c1F (stereo not given)"
assigned_class = "YES"

[[record]]
molecule = "Cn1cc(-c2nnc(N)nc2-c2c[nH]c3ccccc23)c2cccnc21"
assigned_class = "NO"

